SYSTEM: PTPN12 (Homo sapiens, UniProt Q05209)
Construct: Expression of human truncated PTPN12 (PTP-PEST-N) as a fusion protein
Sequence (Q05209 28-293 limits assumed): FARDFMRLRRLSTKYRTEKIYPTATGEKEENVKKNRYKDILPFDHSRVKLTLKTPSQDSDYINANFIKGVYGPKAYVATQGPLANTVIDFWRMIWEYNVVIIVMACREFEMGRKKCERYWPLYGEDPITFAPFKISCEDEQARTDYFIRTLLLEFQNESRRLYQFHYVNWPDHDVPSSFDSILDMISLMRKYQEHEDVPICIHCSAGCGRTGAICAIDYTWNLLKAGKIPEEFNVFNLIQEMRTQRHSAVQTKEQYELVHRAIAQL
ASSAY_NOTES: PTPN12 in vitro phosphatase assay (malachite green phosphate release)
STUDY_CONDITIONS: PTPN12; unit inferred
pIC50: −log10 of the molar value.
VALUE_TYPE: pIC50

>>> experimental_result("CSc1nsc(SCc2ccccc2)c1C(N)=O")
5.82

====

SYSTEM: PTPN12 (Homo sapiens, UniProt Q05209)
Construct: Expression of human truncated PTPN12 (PTP-PEST-N) as a fusion protein; made in house; host or cells: E. coli strain ER2566 (IMPACT vector pTWIN-II)
ASSAY_NOTES: PTPN12 in vitro phosphatase assay (malachite green phosphate release)
Assay type: biochemical
STUDY_CONDITIONS: at 20 μm concentration
VALUE_TYPE: % Inhibition of PTPN12

>>> experimental_result("CCS(=O)(=O)CCSc1nsc(SCCS(=O)(=O)CC)c1C#N")
"60%"
>>> experimental_result("N#Cc1c(SCC(=O)Nc2ccc(S(N)(=O)=O)cc2)nsc1SCC(=O)Nc1ccc(S(N)(=O)=O)cc1")
"73%"
>>> experimental_result("CSc1nsc(SC)c1C(=O)N1CCCCC1")
"51%"
>>> experimental_result("CS(=O)(=O)c1nsc(S(C)(=O)=O)c1C(=O)NC(=O)Nc1ccccc1Cl")
"63%"
